# assay method text: small-molecule microarray binders of probe aXIP, primary screen, biochemical, NeuroSMM set, 635/667 nm fluorescence (AID 1119);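 note: probe is the protein aXip251-270 applied at 1 µg/mL to compound-printed slides; binding of probe to printed compounds measured as 667 nm fluorescence plus signal to noise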
# condition label: higher = more signal, called active from +8 up or from −8 down
// class assignment uses composite Z-score with these ranges: low band (below 0.1), middle band (0.1 to below 0.6), high band (0.6 or more)

Use these answered entries as a reference point.
molecule	label
O=C1NC(=O)C2C1C=CC(C(O)c1cccc(O)c1)N2Nc1ccc(Cl)cc1Cl (stereo not given)	low band
COc1cccc(C[C@H]2C[C@@H](CO[Si](C(C)C)(C(C)C)C(C)C)N3C(=O)[C@@]4(C(C)=O)O[C@@]23[C@@H]2C(=O)N(C)C(=O)[C@@H]24)c1	middle band
COCCOC(=O)N1C(=O)[C@@]2(c3cc(C#CCCO)ccc31)[C@H](C(=O)N1CCc3cc(OC)c(OC)cc3C1)[C@H]1C(=O)O[C@H](c3ccccc3)[C@H](c3ccccc3)N1[C@@H]2c1ccccc1OCCO	middle band
COCCOC(=O)N1C(=O)[C@@]2(c3cc(C#CC4(O)CCCCCC4)ccc31)[C@H](c1ccccc1OCCO)N1[C@H](c3ccccc3)[C@H](c3ccccc3)OC(=O)[C@H]1[C@@H]2C(=O)N1CCCCCCC1	high band
COCC1=C([C@H](O)CCc2ccccc2)[C@H](CO)n2c(=O)n(-c3ccccc3)c(=O)n2C1	low band

Query string: State the band of "C=CCOC(=O)[C@@H]1[C@H]2C(=O)O[C@H](c3ccccc3)[C@H](c3ccccc3)N2[C@H](c2ccc(OCCOC(=O)[C@H]3C[C@H]4C(=O)NCC(=O)N4[C@H]3c3ccc(O)cc3)cc2)[C@@]12C(=O)Nc1ccc(I)cc12"
Result string: high band

Query string: Which category does the recorded composite Z-score put "CCc1cccc(NC(=O)O[C@H]2[C@H](OC(=O)Nc3ccc4c(c3)OCO4)[C@H](OC(=O)Nc3ccc4c(c3)OCO4)[C@@H](OC)O[C@@H]2CO)c1" in?
Result string: high band

Query string: Which category does the recorded composite Z-score put "CN(C)C(=O)[C@@]1(CCS(=O)(=O)c2ccccc2)N=C(c2ccc(OCCCO)cc2)O[C@H]1c1ccccc1N=[N+]=[N-]" in?
Result string: low band

---

# assay method text: basal RPMI8226 viability, no added stimulus, profiling panel, cell-based, calcein-AM fluorescence, 48 h, PK04 Diversity Set (AID 1166);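 note: cells grown under basal conditions without added stimulus; test concentration not given here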
# condition label: RPMI8226 myeloma viability, higher = more signal
measured metric: z-score
Note: the reply should be a number with no unit written.

Observe how each entry below is paired with its result.
molecule	measured metric	measured value
C=CCC(OC(C)=O)[C@@H]1[C@@H](N(Cc2ccc(-c3cccc(C(F)(F)F)c3)o2)C(=O)Cc2ccc(F)cc2)c2cc(OCCCO)ccc2N1C(=O)c1ccc2ccccc2n1 (some centres undefined)	z-score	-0.733
CCCC[C@H]1OB(O)C[C@H]2C1=C(COC)C[C@H]1C(=O)C=CC(=O)[C@H]12	z-score	-2.35
CCOC(=O)C1=CCC(c2cc3ccccc3[nH]2)N(S(=O)(=O)c2ccccc2[N+](=O)[O-])C1 (centres undefined)	z-score	-0.467

// below: z-score requested for another molecule
Query string: Consider the molecule shown here: "C=C(COC)/C(=C/C[C@H](OC(=O)c1ccncc1)c1ccc(OCCO)cc1)c1cc(C(=O)OC)ccc1OC" What is its recorded z-score?
Result string: -0.443

---

# assay method text: S. cerevisiae growth modulation with rapamycin, primary screen, strain BY4716, OD600, 96 h (AID 1091); note: test concentration not given here
# condition label: higher = more signal, called active from +8 up or from −8 down
As shown below, each of these molecules has a reported z-score value.
// return just the number, without any unit appended

molecule	z-score
COc1cc2c(cc1O)C(C1CC1)N(Cc1ccc([N+](=O)[O-])o1)CC2 (configuration not stated)	-2.16
COc1ccc(NN2C(C(O)c3cc(C(F)(F)F)cc(C(F)(F)F)c3)C=CC3C(=O)N(C4CCCCC4)C(=O)C32)cc1 (configuration not stated)	0.518
COc1cccc(C[C@H]2C[C@@H](CO[Si](C(C)C)(C(C)C)C(C)C)N3C(=O)[C@@]4(C(C)=O)O[C@@]23[C@@H]2C(=O)N(C)C(=O)[C@@H]24)c1	1.6
CC(C)C[C@H]1NC(=O)[C@H](Cc2ccccc2)NC(=O)[C@@]23C(=O)N[C@@H](Cc4ccccc4)C2[C@H](C)[C@@]2(C)O[C@H]2C3/C=C/C/C=C\CNC1=O (some centres not stated)	-0.302
C=CC[C@]1(C(=O)OC)N=C(c2ccc(OCCCO)cc2)O[C@H]1c1ccccc1N=[N+]=[N-]	1.35

Query string: Please give the measured z-score for this molecule: C=CCC(OC(C)=O)[C@@H]1[C@@H](N(Cc2cc3ccccc3o2)C(=O)Cc2ccc(OC)cc2)c2cc(OCCCO)ccc2N1C(=O)Cc1ccc2ccccc2c1 (some centres not stated)
Result string: 0.738

Query string: Any idea what its z-score is? The molecule is "O=C1c2ccccc2[C@@]2(Cc3ccccc3N(Cc3ccccc3)C2=O)[C@H](c2ccc(CO)cc2)N1Cc1ccccc1"
Result string: 15.9

---

# System: Noggin (protein binding on small-molecule microarray)
# assay method text: Noggin binders on small-molecule microarray, primary screen, biochemical, 635/667 nm fluorescence (AID 1095);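 note: score merges 667 nm feature fluorescence with signal to noise over triplicate slides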
# condition label: 635 nm fluorescence, higher = more signal
measured metric: composite z-score
Respond with the number and no other words.

These solved cases illustrate the format of a correct answer.
compound	composite z-score
CC(C)(C)OC(=O)CC[C@]1(C(N)=O)N=C(c2ccc(OCCCO)cc2)O[C@H]1c1ccccc1CN=[N+]=[N-]	0.0447
CCCC=C(CCC)[C@@H](NC(=O)c1ccco1)c1ccc(C(=O)OC)cc1	0.678

Query string: So what does the record say about composite z-score for "C=CCNC(=O)[C@H]1[C@@H]2C(=O)O[C@@H](c3ccccc3)[C@@H](c3ccccc3)N2[C@@H](c2ccccc2OCCO)[C@]12C(=O)N(C(=O)OCCOC)c1ccccc12" ?
Result string: 0.786

Query string: Fill in the blank: the reported composite z-score of "C=CC[C@]1(C(=O)N(C)C)COC(c2ccc(OCCCO)cc2)=N1" is ____.
Result string: -0.39

---

In this section we review reported z-score values for a set of compounds.
# assay method text: modulators of S6 phosphorylation in cells, primary screen, cell-based, A549, cytoblot, luminescence, serum-stimulated (AID 1158);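 note: serum-stimulated A549 lung adenocarcinoma cells; signal is phosphorylated S6 detected by cytoblot immunostaining with HRP secondary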
# condition label: A549 phospho-S6 cytoblot, 5 h, higher = more signal
Reply with the value as a number alone.

Examples with their reported z-score follow.
compound	z-score
CCCC=C(CCC)[C@@H](NC(=O)c1ccco1)c1ccc(C(=O)OC)cc1	-0.277
COc1ccc([Si](C)(C)[C@H]2[C@H](CC(=O)N3Cc4ccccc4C[C@H]3CO)O[C@@]3(C(=O)N(Cc4cccc(N5C(=O)c6cccc7cccc5c67)c4)c4ccccc43)[C@@H]2C)cc1	-0.112
C=CCOC(=O)[C@H]1[C@@H]2C(=O)O[C@@H](c3ccccc3)[C@@H](c3ccccc3)N2[C@@H](c2ccc(OCCOC(=O)[C@@H]3C[C@@H]4C(=O)N[C@@H](Cc5ccccc5)C(=O)N4[C@@H]3c3ccc(O)cc3)cc2)[C@]12C(=O)Nc1ccccc12	0.896

Query string: Quick one: z-score for "COC(=O)[C@]1(CO)N=C(c2ccc(OCCCO)cc2)O[C@@H]1c1ccccc1CN=[N+]=[N-]" ?
Result string: -0.405

Query string: Query (compound): "CCCC[C@@H]1C[C@H]1[C@@H](NC(=O)c1ccc(C(F)(F)F)cc1)c1ccc(C(=O)OC)cc1" ; field requested: z-score
Result string: -0.0327

Query string: What value of measured z-score is listed for "O=C1O[C@@H](c2ccccc2)[C@@H](c2ccccc2)N2[C@@H](c3ccc(O)cc3)[C@]3(C(=O)Nc4ccc(C#CC5=CCCCC5)cc43)[C@@H](C(=O)N3CCCCCCC3)[C@H]12" ?
Result string: 2.98

Query string: Given the compound "COC(=O)[C@@]1(Cc2ccc(F)cc2)[C@H]2c3cc(C(=O)N(C)C)n(CCO)c3C[C@H]2CN1C(=O)c1ccccc1" , what is its reported z-score?
Result string: 1.8

Query string: Quick one: z-score for "COCCOC(=O)N1C(=O)[C@@]2(c3cc(C#CC4=CCCCC4)ccc31)[C@H](c1ccc(OCCO)cc1)N1[C@H](c3ccccc3)[C@H](c3ccccc3)OC(=O)[C@H]1[C@@H]2C(=O)N1CCCCCCC1" ?
Result string: 2.26

---

# assay method text: PSAC antagonists in infected red cells, primary screen, cell-based, P. falciparum Indochina, OD700, 1 h (AID 1154)
# condition label: P. falciparum Indochina infected RBC osmotic lysis, called active from +8 up or from −8 down
The source made the active and inactive calls.
Select the matching outcome among active, inactive

Consider the worked cases shown below.
molecule	label
CC(c1ccccc1)C(O)C1C=CC2C(=O)N(c3ccccc3)C(=O)C2N1Nc1ccc(C#N)cc1 (stereo unspecified)	active
C=CCC(OC(C)=O)[C@@H]1[C@@H](N(Cc2cccc3ccccc23)C(=O)c2ccc(C)cc2)c2cc(OCCCO)ccc2N1C(=O)c1ccc2ccccc2n1 (stereo partly specified)	inactive
C=C(COC)/C(=C/C[C@H](OC(=O)c1ccncc1)c1cccc(OCCO)c1)c1cnc2ccccc2c1	active

Query string: Returns: the outcome recorded for CCOC(=O)C1=CCC(c2cc3ccccc3[nH]2)N(S(=O)(=O)c2ccccc2[N+](=O)[O-])C1 (stereo unspecified) in this assay.
Result string: inactive

Query string: Returns: the outcome recorded for "C=C(COC)C(=O)CC[C@@H](OC(C)=O)c1ccc(OCCO)cc1" in this assay.
Result string: inactive

Query string: Hey, what did the test say about "C=C(COC)/C(=C/C[C@H](OC(=O)c1ccncc1)c1ccc(OCCO)cc1)c1cc(C(=O)OC)ccc1OC" ?
Result string: active
